Target: T1, NativeRPtag(large)_with_Tags_and_Cys (Thermoanaerobacter tengcongensis)
T1 chain: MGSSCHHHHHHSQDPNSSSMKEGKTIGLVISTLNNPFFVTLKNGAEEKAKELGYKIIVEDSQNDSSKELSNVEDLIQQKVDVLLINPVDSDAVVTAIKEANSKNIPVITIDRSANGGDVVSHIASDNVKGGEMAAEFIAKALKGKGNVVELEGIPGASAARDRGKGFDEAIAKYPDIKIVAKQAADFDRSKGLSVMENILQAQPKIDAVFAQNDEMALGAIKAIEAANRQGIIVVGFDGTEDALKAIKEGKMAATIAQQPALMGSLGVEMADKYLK
Experiment: fluorescence anisotropy; sorbitol (3M)
Endpoint: pKd
Quick note: pKd means taking -log10 of the concentration in moles per liter.

Documented pKd of PAELKLITK (modifications not checked) [RPtag(small) Nd8, Cd4] : 7.80
